# Method Summary: Rat pharmacokinetics of OA and OC in plasma and urine after oral OA alone or with CMF1
# Assay type: in vivo, Sprague-Dawley rats
# Setup Conditions: male, Sprague-Dawley, in vivo, po, 30 mg/kg, oral, Group 3: OA 30 mg/kg + CMF1 at 3.90 mg/kg, bid for 5 days, mean ± SD, read-out: T max (converted)
Assay Endpoint: Tmax (h)
One number for each entry, in h.

[in] Please report the recorded Tmax for CCC(CC)O[C@@H]1C=C(C(=O)O)C[C@H](N)[C@H]1NC(C)=O [OC, oseltamivir carboxylate] .
[out] 2

====

# Method Summary: Human crossover pharmacokinetic interaction study of WM (Tamiflu) alone or with CMF1
# Assay type: in vivo, human (Chinese male healthy volunteers)
# Setup Conditions: male, human, in vivo, C max, geometric mean
Assay Endpoint: Cmax (ng/mL)
Answers are plain numbers, in ng/mL.

[in] Please report the recorded Cmax for `CCOC(=O)C1=C[C@@H](OC(CC)CC)[C@H](NC(C)=O)[C@@H](N)C1` .
[out] 62.4

====

# Method Summary: Rat pharmacokinetics of OA and OC in plasma and urine after oral OA alone or with CMF1
# Type: in vivo, Sprague-Dawley rats
# Setup Conditions: male, Sprague-Dawley, in vivo, po, 30 mg/kg, oral, Group 2: OA 30 mg/kg + CMF1 at 1.95 mg/kg, bid for 5 days, mean ± SD, read-out: T max (converted)
Assay Endpoint: Tmax (h)
Give bare numbers, in h.

[in] Please report the recorded Tmax for CCC(CC)O[C@@H]1C=C(C(=O)O)C[C@H](N)[C@H]1NC(C)=O [OC, oseltamivir carboxylate] .
[out] 1.77

====

# Method Summary: Human crossover pharmacokinetic interaction study of WM (Tamiflu) alone or with CMF1
# Type: in vivo, human (Chinese male healthy volunteers)
# Setup Conditions: male, human, in vivo, 75 mg, human, day 5, WM alone (Tamiflu 75 mg bid), n = 14, arithmetic mean ± SD; read-out: C trough (plasma concentration at 12 h postdose)
Assay Endpoint: concentration at 12 h
Just so you know, I need the unit written after the number.

[in] Please report the recorded concentration at 12 h for CCC(CC)O[C@@H]1C=C(C(=O)O)C[C@H](N)[C@H]1NC(C)=O [OC, oseltamivir carboxylate] .
[out] 0.207 µg/mL

====

# Method Summary: Human crossover pharmacokinetic interaction study of WM (Tamiflu) alone or with CMF1
# Assay type: in vivo, human (Chinese male healthy volunteers)
# Setup Conditions: male, human, in vivo, 75 mg, human, WM alone, n = 14; read-out: C max, geometric mean
Assay Endpoint: Cmax (ng/mL)
Give bare numbers, in ng/mL.

[in] Please report the recorded Cmax for CCC(CC)O[C@@H]1C=C(C(=O)O)C[C@H](N)[C@H]1NC(C)=O [OC, oseltamivir carboxylate] .
[out] 526

====

# Method Summary: Human crossover pharmacokinetic interaction study of WM (Tamiflu) alone or with CMF1
# Assay type: in vivo, human (Chinese male healthy volunteers)
# Setup Conditions: male, human, in vivo, human, both WM and WM + CMF1 treatments, approximate value; read-out: mean C trough
Assay Endpoint: concentration at 12 h

[in] Please report the recorded concentration at 12 h for CCC(CC)O[C@@H]1C=C(C(=O)O)C[C@H](N)[C@H]1NC(C)=O [OC, oseltamivir carboxylate] .
[out] ~200 ng/mL

====

# Method Summary: Rat pharmacokinetics of OA and OC in plasma and urine after oral OA alone or with CMF1
# Type: in vivo, Sprague-Dawley rats
# Setup Conditions: male, Sprague-Dawley, in vivo, po, 30 mg/kg, CL renal
Assay Endpoint: CL renal (mL/min)
Answers are plain numbers, in mL/min.

[in] Please report the recorded CL renal for `CCOC(=O)C1=C[C@@H](OC(CC)CC)[C@H](NC(C)=O)[C@@H](N)C1` .
[out] 6.1
